Collected TGI values appear next to each entry.
Tested on: SK-MEL-28 melanoma
Test: NCI tumour cell line growth inhibition, 48 h
Number in µM, nothing else.

Illustrative cases are given below, each with its answer.
molecule: CCCCCCN1C(=O)CN=C1Nc1ccc2cc3ccc(NC4=NCC(=O)N4CCCCCC)cc3nc2c1
observed-value: 5.92
--
molecule: C/C(=N/Nc1ccc([N+](=O)[O-])cc1[N+](=O)[O-])C(CC(C(=O)Nc1ccccc1C)/C(C)=N\Nc1ccc([N+](=O)[O-])cc1[N+](=O)[O-])C(=O)Nc1ccccc1C (stereo not drawn)
observed-value: 51.1
--
molecule: CN(C)CCn1c(=O)c2ccc(NCCNCCO)c3c(=O)c4cc(O)ccc4n(c1=O)c23
observed-value: 17

Now turn to the next molecule.
Lookup: Query (molecule): O=C(Nc1ccccc1)Nc1ccccc1CNc1nc(Nc2ccc(OCCN3CCCC3)cc2)ncc1Cl ; field requested: TGI
Found: 11.9

* * *

System: A498 renal
Experiment: NCI tumour cell line growth inhibition, 48 h
endpoint-label: TGI

compound: O=C(O)CNC(=O)c1cccc2c(=O)c3ccccc3[nH]c12
target-desc: A498 renal
TGI: > 100 µM
//
compound: CCOC(=N)CC(=O)NC(C)c1ccccc1 (centres undefined)
target-desc: A498 renal
TGI: > 100 µM
//
compound: CN(Cc1nc2c(N)nc(N)nc2nc1N)c1ccc(C(=O)NC(CCC(=O)O)C(=O)O)cc1 (centres undefined)
target-desc: A498 renal
TGI: > 100 µM
//
compound: C=CC[PH+](c1ccccc1)c1ccccc1.C=CC[PH+](c1ccccc1)c1ccccc1.[Cl][Pt][Cl]
target-desc: A498 renal
TGI: 57.8 µM
//
compound: COC1C(CO)OC(n2c3ccccc3c3c4c(c5c6ccccc6[nH]c5c32)C(=O)NC4=O)C(O)C1OC(=O)C(N)CCCCN (centres undefined)
target-desc: A498 renal
TGI: 3.11 µM
//
compound: Cc1ccc(OCCCCCCNCCO)c(C)c1
target-desc: A498 renal
TGI: 17.7 µM
//
compound: CCCCCCCCCCCCNC(=O)[C@H]1CSC(c2ccc(OC)c(F)c2)N1 (some centres undefined)
target-desc: A498 renal
TGI: 3.28 µM
//
compound: OCc1ccccc1OC1OC(CO)C(O)C(O)C1O (centres undefined)
target-desc: A498 renal
TGI: > 100 µM

Lookup: Query (compound): O=C(OCc1nc2ccc(Br)cc2c(=O)n1-c1ccccc1)c1ccccc1O ; field requested: TGI
Found: > 100 µM

Lookup: Query (compound): COc1ccc(NC(=O)C2=C(SC)C(=O)N=C2N)cc1 ; field requested: TGI
Found: > 100 µM

Lookup: Query (compound): CCCCCCCCCCCCCCCCCC1=NC(C)(C)CN1CCO ; field requested: TGI
Found: 32.1 µM

Lookup: Query (compound): CCSc1nc(N)c2cnn(C)c2n1 ; field requested: TGI
Found: 21.5 µM

Lookup: Query (compound): CCOP(=O)(OCC)C(F)(F)CC1CCCCC1 ; field requested: TGI
Found: > 10 µM

* * *

Collected TGI values appear next to each entry.
Test system: SW-620 colon
Assay: NCI tumour cell line growth inhibition, 48 h

compound: C=CCN1C(=O)/C(=C/c2ccc(Cl)cc2)N=C1SC1OC(COC(C)=O)C(OC(C)=O)C(OC(C)=O)C1OC(C)=O (stereo not given)
target-desc: SW-620 colon
observed-value: > 100 µM
--
compound: CC(=O)C1=C(O)/C(=C\c2ccco2)OC1=O
target-desc: SW-620 colon
observed-value: > 10 µM
--
compound: CN1CCN(C(=S)SCN2C(=O)c3ccccc3S2(=O)=O)CC1
target-desc: SW-620 colon
observed-value: 74.9 µM
--
compound: C/C(=N\O)c1ccc(Nc2c3ccccc3nc3occc23)cc1
target-desc: SW-620 colon
observed-value: > 50 µM
--
compound: C=C1C(=O)C[C@@]23CCC[C@@]12CC(O)C3 (stereo not given in full)
target-desc: SW-620 colon
observed-value: 37.2 µM

Now turn to the next compound.
Lookup: Query (compound): Cc1cnc2[nH]c(-c3ccccc3)cc(=O)c2c1 ; field requested: TGI
Found: > 100 µM
